test system: K4 kissing-loop RNA reporter; assay: apparent KD of K4 kissing-loop reporter; higher = weaker reporter binding; conditions: Eterna round: R107; input ligand: none;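 also: bound reporter read as fluorescence of individual clusters on recovered sequencing chips by microscopy, with normalized cluster intensities fitted with a binding model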

Sequence Input	Measurement Units	apparent KD of K4 kissing-loop reporter
UGGGAUGUUAAAGGAUAUAGCAGGUGAUAUAAGAAAGUGAGUGAUGUUUAUGUAGAUGAUGAUAUGUUAGAAGGUUAACAAAACG [abcdefghi]	nM	340
UGAUAGGACAGAAGGAGCGGAAUGCUAGUCAAAGACUAGCAACGUUAAACAGGAGUGAUGUUCCAGGUAGGUCGCUGUCCUAUCU [ArgBX 22 #SwitchBubble #StaticStem]	nM	135
AACUGUCAAGGACAACAUUACUGCAGUGAUACCAGCAUCGAAAGAUGCCCUUGGCAGCACCAACUUGCAGUGAUGUUGCAAGUAA [BrourdMod 5 - Jieux - Exclusion - Theophylline A]	nM	216
GCAGUGAUGUUGCGGAUGUACAGUGGCGUGCGAGGACCGGUACGGCCGCCACUCGUACAGACCAAGCUAAUACAUCGAUAGGUGA [whbob_SS_Tryp_A_m3]	nM	353
GGUUCUCUGUUAGGAUAUAGAUUAGAGUGAUGUUCUAACGGCCCGGGCCCGAAAGGGCCCGGGCCGCUAGAAGGAACGGAGUUGG [#2 Same State - FMN A Attempt #1 (HarryS)]	nM	1100

====

Below is a list of entries, each paired with its recorded apparent KD of MS2 coat protein value.
system: MS2 coat protein; test: apparent KD of MS2 coat protein; designed switch direction (-1 OFF switch, 1 ON switch): 1; higher = weaker reporter binding; details: input ligand: FMN 200 uM

Sequence Input	Target	Measurement Units	apparent KD of MS2 coat protein
GUUACAUGAGGAUCACCCAUGUAUGUGUGGGAGUAAGUGUCUUAGGAUAUCUAUCAUUUGAUUUAAGAGAAGGAAGAUUGUUGU [JMF's solution 94] (Eterna round: R96, puzzle: Same State NG 3)	MS2 coat protein	µM	0.116
GGAAUAUGAUGUUACAUGAGGAUCACCCAUGUAGUAAUAACUAAGGAUAUCUGAGGAGGAGGAGAAGAGAAGGUAGGAUCAUAA [AK SSNG3-V2-10] (Eterna round: R96, puzzle: Same State NG 3)	MS2 coat protein	µM	0.0238
GCUAGAAUUAAAGCCAACAUGAGGAUCACCCAUGUAUGUUGGUAGGAUAUCGUUUGCUUUGCAAACGAGAAGGGCCAAACUAGC [JL SSNG3 1.07] (Eterna round: R96, puzzle: Same State NG 3)	MS2 coat protein	µM	0.0647
UUAAUCUGAACAUGAGGAUCACCCAUGUAUCUUAUUUUAGGACAGGAUAUAGAUGUUAAGAAUUACUAGAAGGGUCAGUAUAUU [JR_SSNG3_Sub011] (Eterna round: R96, puzzle: Same State NG 3)	MS2 coat protein	µM	0.0191
UAUGAAUUGCAAGGAUAUUGAUAACAUGAGGAUCACCCAUGUAAUUGAUCGAGUUAGAUCAGUUACAAGAAGGUGCUAUUGAUU [JR_SSNG2_Sub036] (Eterna round: R96, puzzle: Same State NG 2)	MS2 coat protein	µM	0.534
CAAUAAUGUGGAGGAUAUGGGAGGUCAACACAUGAGGAUCACCCAUGUAGAUAGUGAGGCCAAGCCUAGAAGGCCACAAUCAGC [Eternabot solution 20] (Eterna round: R96, puzzle: Same State NG 2)	MS2 coat protein	µM	0.0126
ACAUGACAUGAGGAUCACCCAUGUCGAUAAAAGCAAGGAUAUGGGCCCGAGUCGUUCGGACCAGAAGGUGCGUCUC [Orso] (Eterna round: R96, puzzle: Same State 1)	MS2 coat protein	µM	0.0183
UAUCCAUAGAUAGGAUAUUAGAGAACAUGAGGAUCACCCAUGUUUGGCUUGGUUUUAAGCCAAUCUAAGAAGGAUCUUGAUGAA [SameState NG2 #10] (Eterna round: R96, puzzle: Same State NG 2)	MS2 coat protein	µM	0.0221
AGCUUGUGGGUAGGAUAUUUAGGAUAUGCGGAAGACUAAGUCUGUAGGUCACCUAACGCAGAAGGAGAGAAGGACCCUUCAGCA [pwkr ssNG2 2FMN + F9.30] (Eterna round: R96, puzzle: Same State NG 2)	MS2 coat protein	µM	0.353
CGCGGUAAGGAAGGAUAUGGGACGAAAACGUACCUAGAAGGUCCACAUGAGGAUCACCCAUGUACCAAGAAAGCCGCUCAAUUA [Uszabeon] (Eterna round: R96, puzzle: Same State NG 1)	MS2 coat protein	µM	0.0898
CAGCCACAAAAUACGGCUGAAACAUGAGGAUCACCCAUGUCACAGGAUAUCCAACGGUAUACCGCGGAGAAGGGUGCGAAGAAC [Ceusso] (Eterna round: R96, puzzle: Same State NG 3)	MS2 coat protein	µM	0.0737
ACUAUUAAUGCAGGAUAUGAUUAACAUGAGGAUCACCCAUGUGGUGUUGUGAGUAAGGAGAGUGAUCAGAAGGGCAUUUUUUUU [JMF's solution 37] (Eterna round: R96, puzzle: Same State NG 2)	MS2 coat protein	µM	0.992
AGCUAUUAAUCAGGAUAUGGUCACAUGAGGAUCACCCAUGUAUAGAUGAUUAAAUGUGGUCUAAACUAGAAGGGAUUGCUAACA [SameState NG2 #56] (Eterna round: R96, puzzle: Same State NG 2)	MS2 coat protein	µM	0.414
GUUACAUGAGGAUCACCCAUGUAUGUGUGGGAGUAAGUGUCUUAGGAUAUCUGUUAUCUAAUUUAAGAGAAGGAAGAUUGUUGU [JMF's solution 35] (Eterna round: R96, puzzle: Same State NG 3)	MS2 coat protein	µM	0.162
UGAUGCCCAUCAGGAUAUGGGCCCAUGAGGAUCACCCAUGUAAAGUAGGUCCAACAGGGCCAAGUCUAGAAGGGAUGGCGGGCA [malcolm 80 ssNG2 F5+F7.1] (Eterna round: R96, puzzle: Same State NG 2)	MS2 coat protein	µM	0.163
AAAAUGAGUAUAUGAAAACAAGCUUUUUAACAUGAGGAUCACCCAUGUACUCGUCUUAUAAGCAGUCGAAAGACUGC [hsa-mir-208a sensor: 77] (Eterna round: R96, puzzle: Sensor for hsa-mir-208a)	MS2 coat protein	µM	0.0948
GUUACAUGAGGAUCACCCAUGUAUGUGUGGGAGUAAGUGUCUUAGGAUAUCUGUUAUGUAAUUUAAGAGAAGGAAGAUUGUUGU [JMF's solution 34] (Eterna round: R96, puzzle: Same State NG 3)	MS2 coat protein	µM	0.282
UUGAAGAACUAAGGAUAUUGAAUACAUAUGUUUAACAUGAGGAUCACCCAUGUGGGUUGCGGUGUCGAGAAGGUAGAAUAAUAG [Mat - same State NG 2 - JL mod - D96] (Eterna round: R96, puzzle: Same State NG 2)	MS2 coat protein	µM	0.185
